For each of the compounds below, state its LDH.
# Species on record: Rattus norvegicus
# assay_name: Open TG-GATES - Regimen: Daily Repeat
# Type: toxicity, organism-based, Sprague-Dawley
# Parameters: regimen Daily Repeat, gender Male, age 6 weeks
# test_settings: in vivo, po, 1000 mg/kg, […], tissue Plasma, route gavage, dose level High, time 7 day
Answers are plain numbers, in IU/L.

Look up LDH for the entries below, preserving their order.
1. NC(N)=Nc1nc(CSCCC(N)=NS(N)(=O)=O)cs1 [FAMOTIDINE]
2. COC1=CC(=O)C[C@@H](C)[C@]12Oc1c(Cl)c(OC)cc(OC)c1C2=O [GRISEOFULVIN]
3. CCOC(=O)CCC(=O)O[C@H]1[C@H](O[C@@H]2[C@@H](C)[C@H](O[C@H]3C[C@@](C)(OC)[C@@H](O)[C@H](C)O3)[C@@H](C)C(=O)O[C@H](CC)[C@@](C)(O)[C@H](O)[C@@H](C)C(=O)[C@H](C)C[C@@]2(C)O)O[C@H](C)C[C@@H]1N(C)C [ERYTHROMYCIN ETHYLSUCCINATE]

[A]
184
150.2
156.6

Quick batch: LDH for everything below.
1. CCOc1ccc(NC(=O)CC(C)O)cc1 (stereo unspecified) [BUCETIN]
2. COc1ccc2[nH]c([S+]([O-])Cc3ncc(C)c(OC)c3C)nc2c1 (stereo unspecified) [OMEPRAZOLE]
3. CC(C)OC(=O)C(C)(C)Oc1ccc(C(=O)c2ccc(Cl)cc2)cc1 [FENOFIBRATE]

[A]
1: 97.4; 2: 242.4; 3: 122.6

###

# Organism: Rattus norvegicus
# assay_name: Open TG-GATES - Regimen: Single
# Format: toxicity, organism-based, Sprague-Dawley
# Set-up: regimen Single, gender Male, age 6 weeks
# test_settings: in vivo, po, 100 mg/kg, 24 h, tissue Plasma, route gavage, dose level High
For each record, write down the corresponding TC.
Give bare numbers, in mg/dL.

[
  {
    "smiles_structure": "CN(C)CCCN1c2ccccc2CCc2ccccc21",
    "TC / mg/dL": 83.2
  },
  {
    "smiles_structure": "CN(C)CCCN1c2ccccc2CCc2ccc(Cl)cc21",
    "TC / mg/dL": 98.2
  },
  {
    "smiles_structure": "CN(C)CCN(Cc1cccs1)c1ccccn1",
    "TC / mg/dL": 70.8
  }
]

Moving on to the next compound.
[Q] Please report the recorded TC for `CC1=C(/C=C/C(C)=C/C=C/C(C)=C/CO)C(C)(C)CCC1` .
[A] 68.8

###

# Species on record: Rattus norvegicus
# assay_name: Open TG-GATES - Regimen: Daily Repeat
# Type: toxicity, organism-based, Sprague-Dawley
# Set-up: regimen Daily Repeat, gender Male, age 6 weeks
# test_settings: in vivo, po, 0 mg/kg, […], tissue Blood, route gavage, dose level Control, time 7 day
Please provide measured RBC for the entries that follow.
Give bare numbers, in x10_4/ul.

Worked examples follow.
[
  {
    "compound": "CCOC(=O)CCC(=O)O[C@H]1[C@H](O[C@@H]2[C@@H](C)[C@H](O[C@H]3C[C@@](C)(OC)[C@@H](O)[C@H](C)O3)[C@@H](C)C(=O)O[C@H](CC)[C@@](C)(O)[C@H](O)[C@@H](C)C(=O)[C@H](C)C[C@@]2(C)O)O[C@H](C)C[C@@H]1N(C)C [ERYTHROMYCIN ETHYLSUCCINATE]",
    "value_observed": 673.2
  },
  {
    "compound": "COC1=CC(=O)C[C@@H](C)[C@]12Oc1c(Cl)c(OC)cc(OC)c1C2=O [GRISEOFULVIN]",
    "value_observed": 647.4
  },
  {
    "compound": "CCCNC(=O)NS(=O)(=O)c1ccc(Cl)cc1 [CHLORPROPAMIDE]",
    "value_observed": 632
  },
  {
    "compound": "COc1ccc2[nH]c([S+]([O-])Cc3ncc(C)c(OC)c3C)nc2c1 (stereo not drawn) [OMEPRAZOLE]",
    "value_observed": 669.6
  },
  {
    "compound": "CC(C)OC(=O)C(C)(C)Oc1ccc(C(=O)c2ccc(Cl)cc2)cc1 [FENOFIBRATE]",
    "value_observed": 650
  }
]

For each of the items listed, what is its RBC?
1. NNC(=O)c1ccncc1 [ISONIAZID]
2. CC1=C(/C=C/C(C)=C/C=C/C(C)=C/CO)C(C)(C)CCC1 [RETINOL]
3. CN(C)CCCN1c2ccccc2CCc2ccccc21 [IMIPRAMINE]
4. CN1C(=O)CN=C(c2ccccc2)c2cc(Cl)ccc21 [DIAZEPAM]
5. CCOc1ccc(NC(=O)CC(C)O)cc1 (stereo not drawn) [BUCETIN]

[A]
[646.4, 650.4, 649.4, 653.4, 651]

Hello, I would appreciate it if you could give RBC for each entry below.
1. CN(C)CCN(Cc1cccs1)c1ccccn1
2. O=C(CCCN1CCC(O)(c2ccc(Cl)cc2)CC1)c1ccc(F)cc1 [HALOPERIDOL]
3. NC(N)=Nc1nc(CSCCC(N)=NS(N)(=O)=O)cs1 [FAMOTIDINE]

[A]
1: 644.2; 2: 658; 3: 618.2

###

Would you kindly list Eos for each of these compounds?
# Organism: Rattus norvegicus
# assay_name: Open TG-GATES - Regimen: Daily Repeat
# Type: toxicity, organism-based, Sprague-Dawley
# Set-up: regimen Daily Repeat, gender Male, age 6 weeks
# test_settings: in vivo, po, 1000 mg/kg, […], tissue Blood, route gavage, dose level High, time 14 day
Give bare numbers, in %.

Examples from the recorded data:
[
  {
    "compound": "CCOC(=O)CCC(=O)O[C@H]1[C@H](O[C@@H]2[C@@H](C)[C@H](O[C@H]3C[C@@](C)(OC)[C@@H](O)[C@H](C)O3)[C@@H](C)C(=O)O[C@H](CC)[C@@](C)(O)[C@H](O)[C@@H](C)C(=O)[C@H](C)C[C@@]2(C)O)O[C@H](C)C[C@@H]1N(C)C [ERYTHROMYCIN ETHYLSUCCINATE]",
    "value_observed": 0.8
  },
  {
    "compound": "CC(C)OC(=O)C(C)(C)Oc1ccc(C(=O)c2ccc(Cl)cc2)cc1 [FENOFIBRATE]",
    "value_observed": 1
  },
  {
    "compound": "CCOc1ccc(NC(=O)CC(C)O)cc1 (stereo unspecified)",
    "value_observed": 0.6
  },
  {
    "compound": "COC1=CC(=O)C[C@@H](C)[C@]12Oc1c(Cl)c(OC)cc(OC)c1C2=O",
    "value_observed": 1
  },
  {
    "compound": "COc1ccc2[nH]c([S+]([O-])Cc3ncc(C)c(OC)c3C)nc2c1 (stereo unspecified)",
    "value_observed": 0.6
  }
]

// switching to the query compound
[Q] So what's the measured Eos for this one? `NC(N)=Nc1nc(CSCCC(N)=NS(N)(=O)=O)cs1`
[A] 0.8

###

Give KIDNEY_L for every item shown.
# Organism: Rattus norvegicus
# assay_name: Open TG-GATES - Regimen: Single
# Assay type: toxicity, organism-based, Sprague-Dawley
# Set-up: regimen Single, gender Male, age 6 weeks
# test_settings: in vivo, po, 100 mg/kg, 6 h, tissue Kidney, route gavage, dose level High
Answers are plain numbers, in g.

[
  {
    "smiles_structure": "CN(C)CCN(Cc1cccs1)c1ccccn1",
    "KIDNEY_L (g)": 0.8
  },
  {
    "smiles_structure": "CN(C)CCCN1c2ccccc2CCc2ccc(Cl)cc21",
    "KIDNEY_L (g)": 1
  },
  {
    "smiles_structure": "CN(C)CCCN1c2ccccc2CCc2ccccc21",
    "KIDNEY_L (g)": 0.9
  }
]

Now examine the next entry.
[Q] Quick one: KIDNEY_L for `CC1=C(/C=C/C(C)=C/C=C/C(C)=C/CO)C(C)(C)CCC1` ?
[A] 0.9

###

So I've got a bunch of compounds here, and I need their CRE values.
# Species on record: Rattus norvegicus
# assay_name: Open TG-GATES - Regimen: Single
# Format: toxicity, organism-based, Sprague-Dawley
# Parameters: regimen Single, gender Male, age 6 weeks
# test_settings: in vivo, po, 0 mg/kg, 3 h, tissue Plasma, route gavage, dose level Control
Answers are plain numbers, in mg/dL.

[
  {
    "compound": "CN(C)CCCN1c2ccccc2CCc2ccccc21",
    "experimental_endpoint": "CRE",
    "value_observed": 0.2
  },
  {
    "compound": "CCOC(=O)CCC(=O)O[C@H]1[C@H](O[C@@H]2[C@@H](C)[C@H](O[C@H]3C[C@@](C)(OC)[C@@H](O)[C@H](C)O3)[C@@H](C)C(=O)O[C@H](CC)[C@@](C)(O)[C@H](O)[C@@H](C)C(=O)[C@H](C)C[C@@]2(C)O)O[C@H](C)C[C@@H]1N(C)C [ERYTHROMYCIN ETHYLSUCCINATE]",
    "experimental_endpoint": "CRE",
    "value_observed": 0.2
  },
  {
    "compound": "CC1=C(/C=C/C(C)=C/C=C/C(C)=C/CO)C(C)(C)CCC1",
    "experimental_endpoint": "CRE",
    "value_observed": 0.2
  },
  {
    "compound": "CCCNC(=O)NS(=O)(=O)c1ccc(Cl)cc1 [CHLORPROPAMIDE]",
    "experimental_endpoint": "CRE",
    "value_observed": 0.2
  },
  {
    "compound": "CC/C(=C(\\c1ccccc1)c1ccc(OCCN(C)C)cc1)c1ccccc1",
    "experimental_endpoint": "CRE",
    "value_observed": 0.2
  },
  {
    "compound": "COc1cc2c(c(OC)c1OC)-c1ccc(OC)c(=O)cc1[C@@H](NC(C)=O)CC2",
    "experimental_endpoint": "CRE",
    "value_observed": 0.4
  }
]

# batch size: 3; output CRE per entry
1. CN1C(=O)CN=C(c2ccccc2)c2cc(Cl)ccc21
2. CN(C)CCN(Cc1cccs1)c1ccccn1
3. COC1=CC(=O)C[C@@H](C)[C@]12Oc1c(Cl)c(OC)cc(OC)c1C2=O

[A]
1: 0.5; 2: 0.2; 3: 0.3
